System: Escherichia coli TOP10
Test: shrunken log2 fold change of peptide-encoding DNA abundance (4.5 h post-induction vs induction); higher = less antimicrobial activity (less host growth inhibition)
Conditions: time post-induction: 4.5 h; library: site-saturation at positions 5, 18, 19, 20
# if value of shrunken log2 fold change reaches 0.05, tag YES; if it stays below, tag NO

Below are worked cases with known answers.
RRIRLRPPRLPRPRPRPWAMPRP    NO
RRIRFRPPRLPRPRPRPFPHPRP    NO
RRIRLRPPRLPRPRPRPQIWPRP    NO
RRIRVRPPRLPRPRPRPQTPPRP    YES
RRIRARPPRLPRPRPRPERMPRP    YES

Challenge: // inclusive: shrunken log2 fold change at least 0.05? input: RRIRARPPRLPRPRPRPRYTPRP
Response given: NO

Challenge: // inclusive: shrunken log2 fold change at least 0.05? input: RRIRIRPPRLPRPRPRPWANPRP
Response given: NO

Challenge: // inclusive: shrunken log2 fold change at least 0.05? input: RRIRPRPPRLPRPRPRPALSPRP
Response given: YES

Challenge: // inclusive: shrunken log2 fold change at least 0.05? input: RRIRFRPPRLPRPRPRPEFQPRP
Response given: YES

Challenge: // inclusive: shrunken log2 fold change at least 0.05? input: RRIRIRPPRLPRPRPRPLFPPRP
Response given: NO

Challenge: // inclusive: shrunken log2 fold change at least 0.05? input: RRIRTRPPRLPRPRPRPENCPRP
Response given: YES

###

System: Escherichia coli TOP10
Assay: shrunken log2 fold change of peptide-encoding DNA abundance (4.5 h post-induction vs induction); higher = less antimicrobial activity (less host growth inhibition)
Details: time post-induction: 4.5 h; library: site-saturation at positions 5, 18, 19, 20
Assay Endpoint: shrunken log2 fold change
One number for each entry.

Use the examples below as a reference point.
RRIRCRPPRLPRPRPRPIVHPRP    -0.7
RRIRSRPPRLPRPRPRPFFGPRP    0.148
RRIRWRPPRLPRPRPRPRKMPRP    0.382

Report shrunken log2 fold change for each item below.
1. RRIRVRPPRLPRPRPRPFWAPRP
2. RRIRMRPPRLPRPRPRPKNRPRP
3. RRIRGRPPRLPRPRPRPEEDPRP
4. RRIRERPPRLPRPRPRPIKEPRP
5. RRIRVRPPRLPRPRPRPEGDPRP
6. RRIRCRPPRLPRPRPRPDKYPRP

Response given:
[0.182, 0.375, -0.0499, 0.0101, 0.297, -0.717]

Report shrunken log2 fold change for each item below.
1. RRIRYRPPRLPRPRPRPVFVPRP
2. RRIRGRPPRLPRPRPRPKYPPRP
3. RRIRQRPPRLPRPRPRPQDHPRP
4. RRIRPRPPRLPRPRPRPAYTPRP

Response given:
1: -0.458; 2: 0.0365; 3: -0.408; 4: -0.116

Report shrunken log2 fold change for each item below.
1. RRIRNRPPRLPRPRPRPCPYPRP
2. RRIRRRPPRLPRPRPRPLDHPRP

Response given:
1. -0.0128
2. -0.357

###

System: Escherichia coli TOP10;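 further: peptides expressed intracellularly from a pBAD plasmid library in pooled LB shake-flask culture, induced with 0.3% L-arabinose, DNA abundance read by NGS, three biological replicates, DESeq2 with apeglm shrinkage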
Assay: shrunken log2 fold change of peptide-encoding DNA abundance (4.5 h post-induction vs induction); higher = less antimicrobial activity (less host growth inhibition)
Conditions: time post-induction: 4.5 h; library: site-saturation at positions 5, 18, 19, 20
Record form. Attribute: shrunken log2 fold change. Fill in for each entry.

Use the examples below as a reference point.
RRIRTRPPRLPRPRPRPRELPRP    0.267
RRIRYRPPRLPRPRPRPKNHPRP    -0.919
RRIRYRPPRLPRPRPRPGTSPRP    -0.0454
RRIRWRPPRLPRPRPRPFDDPRP    -0.121

Report shrunken log2 fold change for each item below.
1. RRIRHRPPRLPRPRPRPQVCPRP
2. RRIRLRPPRLPRPRPRPSVTPRP
3. RRIRRRPPRLPRPRPRPEDGPRP
4. RRIRFRPPRLPRPRPRPAVFPRP
5. RRIRERPPRLPRPRPRPELVPRP
6. RRIRMRPPRLPRPRPRPYGRPRP

Response given:
-0.0115
-0.267
0.445
0.259
0.0791
0.0596
